# targetEntity: HLA-B*44:03
# protocolNotes: IEDB peptide-MHC binding, purified MHC/competitive/radioactivity; bounds were set here for any values at or beyond the usual limits of such assays
# assayConditions: source organism: Hepatitis B virus
endpointLabel: IC50

Solved entries:
{"constructSequence": "RETVLEYLV", "endpointLabel": "IC50", "experimentalResult": "4830 nM"}
{"constructSequence": "AELLAACFA", "endpointLabel": "IC50", "experimentalResult": "59 nM"}
{"constructSequence": "VELLSFLPSDF", "endpointLabel": "IC50", "experimentalResult": "412 nM"}

For the next question, use this sequence.
# input Could you share which IC50 value was measured for AELLAACF ?
# output 27 nM
